Molecular target: PI3Kδ (Homo sapiens, UniProt O00329)
Construct: The protein is full length and co-expressed with untagged PIK3R1; GST; purchased Invitrogen PV5274
Sequence (O00329 whole entry): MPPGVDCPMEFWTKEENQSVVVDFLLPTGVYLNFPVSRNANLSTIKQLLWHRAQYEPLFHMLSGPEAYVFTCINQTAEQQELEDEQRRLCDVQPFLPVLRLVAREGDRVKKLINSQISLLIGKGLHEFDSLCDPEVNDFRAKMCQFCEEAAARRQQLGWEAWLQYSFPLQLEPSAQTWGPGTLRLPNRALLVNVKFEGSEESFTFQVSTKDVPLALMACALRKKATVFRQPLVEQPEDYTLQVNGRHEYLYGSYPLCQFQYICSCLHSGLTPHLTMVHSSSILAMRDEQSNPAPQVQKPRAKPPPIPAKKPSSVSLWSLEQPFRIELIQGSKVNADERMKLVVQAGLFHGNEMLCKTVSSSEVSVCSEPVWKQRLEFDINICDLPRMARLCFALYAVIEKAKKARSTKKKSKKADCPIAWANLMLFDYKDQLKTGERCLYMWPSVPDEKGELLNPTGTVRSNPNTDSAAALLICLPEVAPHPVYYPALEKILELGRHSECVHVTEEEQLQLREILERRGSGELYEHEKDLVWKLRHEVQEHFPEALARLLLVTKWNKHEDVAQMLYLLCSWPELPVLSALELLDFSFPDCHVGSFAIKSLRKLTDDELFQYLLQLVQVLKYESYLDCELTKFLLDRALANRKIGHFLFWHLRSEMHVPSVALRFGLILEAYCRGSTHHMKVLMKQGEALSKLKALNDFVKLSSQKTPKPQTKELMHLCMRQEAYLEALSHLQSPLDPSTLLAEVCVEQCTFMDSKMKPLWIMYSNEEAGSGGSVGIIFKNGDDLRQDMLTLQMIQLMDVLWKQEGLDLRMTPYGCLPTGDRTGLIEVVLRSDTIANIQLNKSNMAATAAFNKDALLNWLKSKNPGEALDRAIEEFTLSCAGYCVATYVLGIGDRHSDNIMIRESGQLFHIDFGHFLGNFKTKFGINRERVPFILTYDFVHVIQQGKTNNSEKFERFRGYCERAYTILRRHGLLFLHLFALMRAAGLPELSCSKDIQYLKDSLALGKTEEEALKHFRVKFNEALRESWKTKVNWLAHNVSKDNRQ
Sequence (P27986 whole entry partner): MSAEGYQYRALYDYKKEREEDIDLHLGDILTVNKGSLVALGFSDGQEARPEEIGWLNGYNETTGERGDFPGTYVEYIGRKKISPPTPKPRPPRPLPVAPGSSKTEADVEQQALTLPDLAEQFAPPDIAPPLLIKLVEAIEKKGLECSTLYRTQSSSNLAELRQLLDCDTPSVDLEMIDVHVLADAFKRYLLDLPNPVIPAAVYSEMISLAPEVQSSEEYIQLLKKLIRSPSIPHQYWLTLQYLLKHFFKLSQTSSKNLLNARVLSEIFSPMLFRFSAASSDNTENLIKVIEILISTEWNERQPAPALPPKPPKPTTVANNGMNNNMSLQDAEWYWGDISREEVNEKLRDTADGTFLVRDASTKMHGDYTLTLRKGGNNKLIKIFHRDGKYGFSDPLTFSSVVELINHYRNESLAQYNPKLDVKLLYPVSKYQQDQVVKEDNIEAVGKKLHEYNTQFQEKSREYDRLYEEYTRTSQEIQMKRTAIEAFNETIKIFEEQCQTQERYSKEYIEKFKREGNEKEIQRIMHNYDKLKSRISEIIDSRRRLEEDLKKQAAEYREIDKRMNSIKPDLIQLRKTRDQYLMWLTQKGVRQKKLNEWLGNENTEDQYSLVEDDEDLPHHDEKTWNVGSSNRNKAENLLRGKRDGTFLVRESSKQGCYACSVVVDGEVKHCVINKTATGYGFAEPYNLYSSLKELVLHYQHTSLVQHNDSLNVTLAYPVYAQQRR
Assay: PI3Kδ inhibition, modified PIK3CD Adapta TR-FRET assay
Type: biochemical
Conditions: recombinant GST-tagged full length PIK3CD co-expressed with PIK3R1 (p85α); 2 μM ATP, 50 μM PIP2; read-out: PI3Kδ Inhibition (pIC50) (converted)
metric: IC50 (nM)

>>> measured_number("CS(=O)(=O)c1ccc(CN2C[C@@H]3COCCN3c3nc(-c4cccc5[nH]ccc45)ncc32)cc1 [Example 29]")
5.01
>>> measured_number("CS(=O)(=O)c1ccc(CN2C(=O)C3COCCN3c3nc(-c4ccc5cn[nH]c5c4)ncc32)cc1 (stereo not shown) [Example 124]")
3980

I = CNS(=O)(=O)c1cccc(-c2ncc3c(n2)N2CCOCC2C(=O)N3Cc2ccc(S(C)(=O)=O)cc2)c1 (stereo not shown) [Example 111]
II = CN(CC1CCOCC1)C(=O)CN1C[C@@H]2COCCN2c2nc(-c3cccc4[nH]ccc34)ncc21 [Example 212]
III = CS(=O)(=O)c1ccc(CN2C(=O)C3COCCN3c3nc(-c4ccc(C(N)=O)cc4)ncc32)cc1 (stereo not shown) [Example 107]
Put the items in order so that reported IC50 rises from first to last. Return value: ordered labels per request.
II, III, I

I = COC(=O)c1ccc(C)cc1CN1C[C@@H]2COCCN2c2nc(-c3cccc4[nH]ccc34)ncc21 [Example 165]
II = c1cc(-c2ncc3c(n2)N2CCOC[C@H]2CN3Cc2cnco2)c2cc[nH]c2c1 [Example 185]
Please tell me which of the two, I or II , has the higher reported IC50 value. // respond with label for picked entry
I
(I: 794 nM, II: 10 nM)

* * *

Target: PI3Kδ (Homo sapiens)
Construct: The protein is full length and co-expressed with untagged PIK3R1; GST; purchased Invitrogen PV5274
Assay: PI3Kδ inhibition, modified PIK3CD Adapta TR-FRET assay
Format: biochemical
Conditions: recombinant GST-tagged full length PIK3CD co-expressed with PIK3R1 (p85α); 2 μM ATP, 50 μM PIP2; read-out: PI3Kδ Inhibition (pIC50) (converted)
metric: IC50 (nM)

Solved cases (3 shown):
>>> measured_number("CS(=O)(=O)c1ccc(CN2C(=O)C3COCCN3c3nc(-c4cnc5cc[nH]c5c4)ncc32)cc1 (stereo not shown)")
31.6
>>> measured_number("COC(=O)c1cncc(N2C[C@@H]3COCCN3c3nc(-c4cccc5[nH]ccc45)ncc32)c1")
1000
>>> measured_number("O=C1Nc2cnc(-c3cccc4[nH]ccc34)nc2N2CCOC[C@@H]12 (single isomer, unassigned)")
5.01

1 = CCOC(=O)c1cncc(-c2ncc3c(n2)N2CCOCC2C(=O)N3Cc2ccc(S(C)(=O)=O)cc2)c1 (stereo not shown)
2 = COc1cncc(N2C[C@@H]3COCCN3c3nc(-c4cccc5[nH]ccc45)ncc32)c1
3 = COc1cc(C(N)=O)ccc1CN1CC2COCCN2c2nc(-c3cccc4[nH]ccc34)ncc21 (stereo not shown)
Put the items in order so that reported IC50 rises from first to last. Return value: ordered labels per request.
2, 3, 1

A = Cn1cc(CN2C[C@@H]3COCCN3c3nc(-c4cccc5[nH]ccc45)ncc32)cn1
B = Cc1n[nH]cc1-c1ncc2c(n1)N1CCOCC1C(=O)N2Cc1ccc(S(C)(=O)=O)cc1 (stereo not shown)
C = CS(=O)(=O)c1ccc(CN2C(=O)C3COCCN3c3nc(-c4cccc5[nH]cnc45)ncc32)cc1 (stereo not shown)
D = N[C@H]1CC[C@H](CN2C[C@@H]3COCCN3c3nc(-c4cccc5[nH]ccc45)ncc32)CC1
Rank entries according to their IC50, from the largest number down. Return value: ordered labels per request.
D, B, C, A
(D: 3160 nM, B: 126 nM, C: 79.4 nM, A: 15.8 nM)
